Consider the following compounds; for each one, report its pIC50.
pIC50 here is simply -log10 of the concentration when that concentration is written in mol/L.

Form field: pIC50 recorded for `Cc1cc(Nc2nc3ccccc3[nH]2)c2ccccc2c1Oc1ncccc1-c1ccnc(NCCN(C)C)n1` with Serine/threonine-protein kinase/endoribonuclease IRE1 (Homo sapiens, UniProt O75460) (enter value) 7.85

Form field: pIC50 recorded for `c1cnc(Oc2ccc(Nc3nc4ccccc4[nH]3)c3ccccc23)c(-c2ccnc(N[C@H]3CCCNC3)n2)c1` with Serine/threonine-protein kinase/endoribonuclease IRE1 (Homo sapiens, UniProt O75460) (enter value) 8.01

Form field: pIC50 recorded for `Cc1cc(NS(=O)(=O)c2ccccc2C#N)c2ccccc2c1Oc1ncccc1-c1ccnc(N[C@H]2CC[C@H](N)CC2)n1` with Serine/threonine-protein kinase/endoribonuclease IRE1 (Homo sapiens, UniProt O75460) (enter value) 7.92

Form field: pIC50 recorded for `N[C@H]1CC[C@H](Nc2nccc(-c3cccnc3Oc3ccc(Nc4nc5ccccc5[nH]4)c4ccccc34)n2)CC1` with Serine/threonine-protein kinase/endoribonuclease IRE1 (Homo sapiens, UniProt O75460) (enter value) 7.96

Form field: pIC50 recorded for `Cc1cc(NS(=O)(=O)c2ccccc2Cl)c2ccccc2c1Oc1ncccc1-c1ccnc(N[C@H]2CC[C@H](N)CC2)n1` with Serine/threonine-protein kinase/endoribonuclease IRE1 (Homo sapiens, UniProt O75460) (enter value) 7.85

This collection of values is drawn from ChEMBL document CHEMBL3352477.
